Tested on: JAK1(JH1domain-catalytic)
condition.description: concentration: 1 μM,replicates: in singlicate; n = 1;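 further: KINOMEscan kinase panel screen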
outcome.measure: %Inh (%)
Enter your answer as a number in %; do not include the unit.

Before answering, review these 5 worked examples.
molecule	result.unit	%Inh
O=C(Nc1n[nH]c2cc(-c3ccco3)ccc12)C1CC1	%	2
C[C@@H](Oc1cc(-n2cnc3cc(-c4ccncc4)ccc32)sc1C(N)=O)c1ccccc1Cl	%	0
Cc1cccc(-c2nc(Nc3ccncc3)c3sccc3n2)n1	%	0
Cc1nnc(-c2ccc3occ(-c4ccc(S(C)=O)cc4)c3n2)o1 (stereo not drawn)	%	8
CCn1c(-c2nonc2N)nc2cncc(CNC3CCNCC3)c21.Cl	%	15

What reported %Inh corresponds to `COc1cc2c(Nc3ccc(NC(=O)c4ccccc4)cc3)ncnc2cc1OCCCN1CCOCC1` on JAK1(JH1domain-catalytic)? 0

Now consider `Cc1ccc2c(-c3ccnc(Nc4ccc(C(F)(F)F)cc4)n3)cnn2n1` . 4

Now consider `COc1cccc(OC)c1C(=O)Nc1cccc(-c2nn3ccccc3c2-c2ccnc(Nc3cccc(F)c3)n2)c1` . 0

Now consider COc1cccc(CNC(=O)NC2CCN(c3ccnc(Nc4cc(OC)c(OC)c(OC)c4)n3)C2)c1 (stereo not drawn) . 13

* * *

Listing of recorded %Inh by entry.
System: p38-alpha
Construct: gene MAPK14
condition.description: concentration: 1 μM,replicates: in singlicate; n = 1
Enter your answer as a number in %; do not include the unit.

Before answering, review these 3 worked examples.
compound	endpoint.value
COc1cc(Nc2nccc(N3CCC(NC(=O)c4cccc(C#N)c4)C3)n2)cc(OC)c1OC (stereo not shown) [GSK1379751]	23
C[C@@H]1CCN(C(=O)N2CCCC2)C[C@@H]1N(C)c1ncnc2[nH]ccc12	5
CS(=O)(=O)c1cccc(CNc2nc(Nc3ccc4c(c3)[C@@H]3C[C@@H]4CNC3=O)ncc2C(F)(F)F)c1	0

Turning now to a further compound:
Requested field: %Inh. Item: Cc1ccc2c(-c3ccnc(Nc4ccc(C(F)(F)F)cc4)n3)cnn2n1 [GW819776] 0

* * *

Test system: BUB1
condition.description: concentration: 1 μM,replicates: in singlicate; n = 1
Listing of recorded %Inh by entry.
Just so you know, I need the unit written after the number.

compound	outcome.measure	endpoint.value
Cl.Cl.NC[C@H](CC1CCCCC1)NC(=O)c1ccc(-c2ccnc3[nH]ccc23)s1 [GSK1581428]	%Inh	44%
Cc1nnc(-c2ccc3occ(-c4ccc(S(C)=O)cc4)c3n2)o1 (centres unmarked)	%Inh	0%
Cn1ccc2ncnc(Oc3ccc(NC(=O)Nc4cccc(C(F)(F)F)c4)c(F)c3)c21	%Inh	0%
COc1cc2nccc(Nc3ccc(Oc4ccccc4)cc3)c2cc1OC.Cl [GI261656]	%Inh	31%

Requested field: %Inh. Item: `C[C@@H]1CCN(C(=O)N2CCCC2)C[C@@H]1N(C)c1ncnc2[nH]ccc12` 25%

Now consider `O=C(Nc1ccc(Oc2ccc3nc(NC(=O)C4CC4)cn3n2)c(F)c1)c1cccn(-c2ccccc2)c1=O` . 0%

Now consider `CN(c1cccc(CNc2nc(Nc3ccc4c(c3)CC(=O)N4)ncc2C(F)(F)F)c1)S(C)(=O)=O` . 2%

Now consider CCOC(=O)N1CCC(n2cnc(-c3ccc(F)cc3)c2-c2ccnc(N)n2)CC1 [SB-219952] . 0%
